target: T1, VEGF (human, UniProt P15692-4 27-191, limits assumed); assay: BIAcore-2000 SPR, wt = Y0192
T1 construct: also called human VEGF; vascular endothelial growth factor
T1 sequence (P15692 other isoform, or with tags, fused parts or gaps limits assumed): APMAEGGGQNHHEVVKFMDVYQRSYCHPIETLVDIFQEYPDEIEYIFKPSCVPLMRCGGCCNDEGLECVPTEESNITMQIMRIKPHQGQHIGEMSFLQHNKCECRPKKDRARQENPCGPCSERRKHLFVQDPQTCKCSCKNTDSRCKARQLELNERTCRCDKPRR
Field: Kd (wt) / Kd (mut). Provide a value for each of the binders that follow.
I only need the number, in ratio, no unit after it.

## Task I would be grateful if you could share the reported Kd (wt) / Kd (mut) for Y0238-5 (Fab, V domains shown, Library YC-81 (VH3) on the pY0192 template; substitutions deduced against Y0192; soluble Fab) VH: EVQLVESGGGLVQPGGSLRLSCAASGYTFTNYGINWVRQAPGKGLEWVGWINTYTGEPTYAADFKRRFTFSLDTSKSTAYLQMNSLRAEDTAVYYCAKYPYYIAKSHWYFDVWGQGTL VL: DIQLTQSPSSLSASVGDRVTITCRANEQLSNYLNWYQQKPGKAPKVLIYFTSSLHSGVPSRFSGSGSGTDFTLTISSLQPEDFATYYCQQYSTVPWTFGQGTKVEIKR .
## Result 3.2

## Task What does the record list as Kd (wt) / Kd (mut) for Y0238-10 (Fab, V domains shown, Library YC-81 (VH3) on the pY0192 template; substitutions deduced against Y0192; soluble Fab) VH: EVQLVESGGGLVQPGGSLRLSCAASGYTFTNYGINWVRQAPGKGLEWVGWINTYTGEPTYAADFKRRFTFSLDTSKSTAYLQMNSLRAEDTAVYYCAKYPYYRNTSHWYFDVWGQGTL VL: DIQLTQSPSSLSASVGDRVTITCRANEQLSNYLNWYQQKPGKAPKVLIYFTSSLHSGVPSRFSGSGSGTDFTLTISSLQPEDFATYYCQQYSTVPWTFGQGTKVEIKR ?
## Result 4.8

## Task For the binder shown here, Y0244-4 (Fab, V domains shown, substitutions deduced against Y0192; soluble Fab) VH: EVQLVESGGGLVQPGGSLRLSCAASGYTFTNYGINWVRQAPGKGLEWVGWINTYTGEPTYAADFKRRFTFSIDKSKSTAYLQMNSLRAEDTAVYYCAKYPHYYGSSHWYFDVWGQGTL VL: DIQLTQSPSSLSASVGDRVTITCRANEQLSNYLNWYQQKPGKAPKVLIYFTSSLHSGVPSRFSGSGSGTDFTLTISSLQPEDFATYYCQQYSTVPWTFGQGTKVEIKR , give the reported Kd (wt) / Kd (mut).
## Result 0.9

## Task Record request: Kd (wt) / Kd (mut) value, item Y0313-3 (Fab, V domains shown, Reversion mutant of Y0238-3; soluble Fab) VH: EVQLVESGGGLVQPGGSLRLSCAASGYTFTNYGINWVRQAPGKGLEWVGWINTYTGEPTYAADFKRRFTFSLDTSKSTAYLQMNSLRAEDTAVYYCAKYPYYYGSSHWYFDVWGQGTL VL: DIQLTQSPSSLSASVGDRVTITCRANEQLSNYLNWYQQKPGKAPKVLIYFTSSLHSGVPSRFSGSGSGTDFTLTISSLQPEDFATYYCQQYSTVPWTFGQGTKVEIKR
## Result 4.5
